Origin of the recorded values: paper PMC12322656

Target: PpnN (purine/pyrimidine nucleotide 5'-phosphate nucleosidase; EC 3.2.2.10) (Escherichia coli, UniProt P0ADR8)
Construct: subunit 51,794 Da (wild type; RY 51,440 Da); wild type tetramer, RY variant monomer
Sequence (P0ADR8 whole entry): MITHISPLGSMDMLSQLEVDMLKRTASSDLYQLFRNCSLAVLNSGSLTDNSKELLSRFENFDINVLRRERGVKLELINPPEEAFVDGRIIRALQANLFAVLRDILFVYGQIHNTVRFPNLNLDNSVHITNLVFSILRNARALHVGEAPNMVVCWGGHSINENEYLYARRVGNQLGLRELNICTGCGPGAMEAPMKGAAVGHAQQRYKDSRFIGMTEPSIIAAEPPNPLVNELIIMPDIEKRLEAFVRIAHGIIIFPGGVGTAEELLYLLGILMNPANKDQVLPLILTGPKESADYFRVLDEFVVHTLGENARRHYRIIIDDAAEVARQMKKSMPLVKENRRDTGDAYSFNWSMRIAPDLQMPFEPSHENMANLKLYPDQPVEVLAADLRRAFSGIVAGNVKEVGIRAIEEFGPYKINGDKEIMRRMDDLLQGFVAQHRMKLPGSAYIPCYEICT
Test: initial-rate inhibition, HPLC of uracil release, nonlinear fit
Settings: substrate UMP; 50 mM HEPES pH 7.5, 40 °C; competitive; wild type
result_type: pKi
Keep it numeric: pKi is minus log10 of the concentration in mol/L.

Fill blank: measured pKi of the molecule O=P(O)(O)OC[C@H]1OC(O)[C@H](O)[C@@H]1O (stereo partly drawn) [D-ribose 5-phosphate] is ____. 4.00
